Entries and their PBM E-score
ASSAYED_SYSTEM: Yer064c (UniProt P40041)
Sequence: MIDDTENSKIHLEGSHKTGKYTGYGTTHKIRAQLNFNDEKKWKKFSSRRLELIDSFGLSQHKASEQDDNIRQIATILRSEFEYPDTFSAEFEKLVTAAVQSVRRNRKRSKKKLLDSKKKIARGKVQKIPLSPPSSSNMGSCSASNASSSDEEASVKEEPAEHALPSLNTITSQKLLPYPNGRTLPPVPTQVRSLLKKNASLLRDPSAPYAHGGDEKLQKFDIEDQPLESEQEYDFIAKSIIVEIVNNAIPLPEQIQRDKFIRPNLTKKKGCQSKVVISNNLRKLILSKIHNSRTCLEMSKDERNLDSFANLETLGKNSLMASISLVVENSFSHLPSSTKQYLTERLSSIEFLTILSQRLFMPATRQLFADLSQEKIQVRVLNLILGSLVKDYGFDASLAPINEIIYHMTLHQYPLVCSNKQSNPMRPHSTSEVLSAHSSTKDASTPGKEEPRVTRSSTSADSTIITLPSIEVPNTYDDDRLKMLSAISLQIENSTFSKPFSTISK
ASSAY_NAME: PBM E-score (8-mer binding enrichment) (E-score (-0.5 to 0.5)); higher = stronger / more preferred TF binding
CONDITION_CONTEXT: protein concentration: 200 nM; construct: GST-full length
Over roughly 33,000 sequences, “E-score (-0.5 to 0.5)” has its median near -0.036; the highest 2% begin near 0.37. This excerpt belongs to a sample that is enriched for the highest values.
ENDPOINT: PBM E-score

| SEQUENCE_CHAIN | ASSAYED_SYSTEM | ENDPOINT | OBSERVED_MEASUREMENT |
| --- | --- | --- | --- |
| AGTGATTC | Yer064c (UniProt P40041) | PBM E-score | 0.405 |
| CACGACTA | Yer064c (UniProt P40041) | PBM E-score | 0.403 |
| AGTACTCA | Yer064c (UniProt P40041) | PBM E-score | 0.393 |
| AGTGATTA | Yer064c (UniProt P40041) | PBM E-score | 0.4 |
